- target-or-system: NLRP3 inflammasome (Mus musculus)
- Sequence (Q8R4B8 whole entry): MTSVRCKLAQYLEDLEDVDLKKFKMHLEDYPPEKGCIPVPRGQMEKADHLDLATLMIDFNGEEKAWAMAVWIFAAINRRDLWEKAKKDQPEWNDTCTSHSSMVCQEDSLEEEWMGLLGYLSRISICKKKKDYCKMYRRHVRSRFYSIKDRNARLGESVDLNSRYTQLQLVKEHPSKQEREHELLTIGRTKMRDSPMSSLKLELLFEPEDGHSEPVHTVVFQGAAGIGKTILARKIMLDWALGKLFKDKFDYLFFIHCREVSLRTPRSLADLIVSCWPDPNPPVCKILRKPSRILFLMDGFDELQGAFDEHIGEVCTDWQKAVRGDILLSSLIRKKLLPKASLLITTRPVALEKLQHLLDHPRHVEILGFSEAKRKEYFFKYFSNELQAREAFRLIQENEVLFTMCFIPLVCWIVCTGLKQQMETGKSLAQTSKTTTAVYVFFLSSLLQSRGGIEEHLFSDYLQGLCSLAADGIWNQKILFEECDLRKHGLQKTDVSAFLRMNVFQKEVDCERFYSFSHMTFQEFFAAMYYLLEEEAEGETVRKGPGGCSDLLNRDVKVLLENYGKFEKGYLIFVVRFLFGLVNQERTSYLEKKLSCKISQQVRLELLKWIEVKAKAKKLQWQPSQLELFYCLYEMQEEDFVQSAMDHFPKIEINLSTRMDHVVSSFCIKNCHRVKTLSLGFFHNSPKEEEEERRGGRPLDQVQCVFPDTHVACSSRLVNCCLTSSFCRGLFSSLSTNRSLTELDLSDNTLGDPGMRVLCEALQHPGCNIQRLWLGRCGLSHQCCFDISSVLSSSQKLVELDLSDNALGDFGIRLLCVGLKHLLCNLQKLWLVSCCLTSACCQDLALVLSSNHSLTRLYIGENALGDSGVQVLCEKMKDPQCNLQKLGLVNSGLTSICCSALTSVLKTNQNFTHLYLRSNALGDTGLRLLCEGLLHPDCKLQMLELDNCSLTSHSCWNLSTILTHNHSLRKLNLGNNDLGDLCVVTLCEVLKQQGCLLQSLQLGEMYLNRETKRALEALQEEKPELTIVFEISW
- test-details: Inhibition of IL-1β release, NLRP3 inflammasome activation assay in BMDM
- Assay type: cell-based
- condition-context: select compounds of the first aspect (Table 10), read-out: BMDM IC50 vs NLRP3
Consider the following molecules and their measured IC50 readings.
State the answer as a number, implicitly in nM.

A selection of reference data follows.
Req: Check the records and state IC50 for CCC1=C(C)CN(C(=O)NCCc2ccc(S(=O)(=O)NC(=O)Nc3c4c(cc5c3CCC5)CCC4)cc2)C1=O [drawing 360]
Resp: 220

Req: Check the records and state IC50 for O=C(Nc1c2c(cc3c1CCC3)CCC2)NS(=O)(=O)c1ccc2c(c1)CCC2 [drawing 367]
Resp: 50

Switching to the query record.
Req: Check the records and state IC50 for Cc1cc(C(=O)NCCc2ccc(S(=O)(=O)NC(=O)Nc3c4c(cc5c3CCC5)CCC4)cc2)no1 [drawing 362]
Resp: 280

====

- target-or-system: UniProt:Q96P20
- Sequence (Q96P20 whole entry): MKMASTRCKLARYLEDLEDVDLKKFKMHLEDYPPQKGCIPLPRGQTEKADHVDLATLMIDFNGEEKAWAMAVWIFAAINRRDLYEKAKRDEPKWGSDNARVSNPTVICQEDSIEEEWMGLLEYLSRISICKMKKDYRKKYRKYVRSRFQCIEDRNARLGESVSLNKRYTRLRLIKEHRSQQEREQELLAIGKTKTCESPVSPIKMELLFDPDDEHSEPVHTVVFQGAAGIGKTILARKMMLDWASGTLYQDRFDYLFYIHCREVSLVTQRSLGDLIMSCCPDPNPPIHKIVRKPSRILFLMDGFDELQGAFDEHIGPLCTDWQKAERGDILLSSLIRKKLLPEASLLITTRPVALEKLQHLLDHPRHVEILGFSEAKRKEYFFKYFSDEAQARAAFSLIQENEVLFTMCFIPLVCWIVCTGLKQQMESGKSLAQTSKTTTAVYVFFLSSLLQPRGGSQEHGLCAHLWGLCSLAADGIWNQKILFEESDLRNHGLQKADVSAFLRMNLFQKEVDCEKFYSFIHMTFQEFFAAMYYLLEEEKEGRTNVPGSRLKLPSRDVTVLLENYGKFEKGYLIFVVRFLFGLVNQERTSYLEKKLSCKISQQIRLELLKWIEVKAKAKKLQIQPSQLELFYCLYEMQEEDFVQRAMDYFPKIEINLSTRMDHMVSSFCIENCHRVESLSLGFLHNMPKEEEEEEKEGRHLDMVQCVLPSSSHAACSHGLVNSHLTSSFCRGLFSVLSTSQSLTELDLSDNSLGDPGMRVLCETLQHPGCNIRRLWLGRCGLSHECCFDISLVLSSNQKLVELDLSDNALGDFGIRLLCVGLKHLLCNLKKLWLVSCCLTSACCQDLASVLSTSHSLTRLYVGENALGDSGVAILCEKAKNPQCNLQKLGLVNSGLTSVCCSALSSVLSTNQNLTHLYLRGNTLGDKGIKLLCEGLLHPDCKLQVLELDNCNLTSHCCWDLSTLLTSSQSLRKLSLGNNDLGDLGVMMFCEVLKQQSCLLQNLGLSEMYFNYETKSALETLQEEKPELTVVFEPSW
- test-details: Inhibition of IL-1β release, NLRP3 inflammasome activation assay in HMDM
- Type: cell-based
- condition-context: inhibition of IL-1β release, class symbols, read-out: Avg. IL-1β IC50 HMDM
pIC50: −log10 of the molar value.
Consider the following compounds and their measured pIC50 readings.

A selection of reference data follows.
Req: Check the records and state pIC50 for CC(C)c1cc(Cl)cc(C(C)C)c1NC(=O)NS(=O)(=O)c1cccc2cccnc12
Resp: > 5.00

Req: Check the records and state pIC50 for CC(C)(O)c1coc(S(=O)(=O)NC(=O)Nc2c3c(c(Br)c4c2CCC4)CCC3)c1
Resp: > 7.00

***
Req: Check the records and state pIC50 for O=C(Nc1cccc2ncccc12)NS(=O)(=O)c1cccc(C2(C(F)(F)F)N=N2)c1
Resp: > 4.30

Req: Check the records and state pIC50 for CC(C)c1cc(Cl)cc(C(C)C)c1NC(=O)NS(=O)(=O)c1cc(C(C)(C)O)n(-c2ccccc2)n1
Resp: > 7.00

Req: Check the records and state pIC50 for O=C(Nc1c2c(cc3c1CCC3)CCC2)NS(=O)(=O)c1cccs1
Resp: > 7.00

Req: Check the records and state pIC50 for O=C(Nc1c2c(cc3c1CCC3)CCC2)NS(=O)(=O)c1cc(C(F)(F)F)ccn1
Resp: > 7.00

Req: Check the records and state pIC50 for Cc1cnc(C(=O)NCCc2ccc(S(=O)(=O)NC(=O)Nc3c4c(cc5c3CCC5)CCC4)cc2)cn1
Resp: > 6.00

Req: Check the records and state pIC50 for CC(C)c1cc(Cl)cc(C(C)C)c1NC(=O)NS(=O)(=O)c1cccc2ncccc12
Resp: > 6.00

Req: Check the records and state pIC50 for CC(C)n1cc(S(=O)(=O)NC(=O)Nc2c3c(cc4c2CCC4)CCC3)nn1
Resp: > 7.00

Req: Check the records and state pIC50 for CC(C)(O)c1coc(S(=O)(=O)NC(=S)Nc2c3c(cc4c2CCC4)CCC3)c1
Resp: > 6.00

Req: Check the records and state pIC50 for Cc1cc(Cl)cc(C(F)(F)F)c1NC(=O)NS(=O)(=O)c1ccn(C(C)C)n1
Resp: > 5.00

Req: Check the records and state pIC50 for CN(C)c1ccc2c(CC(=O)NCCc3ccc(S(=O)(=O)NC(=O)Nc4c5c(cc6c4CCC6)CCC5)cc3)cc(=O)oc2c1
Resp: > 6.00
